Parameter Lowest effective concentration (LOEC) in micronucleus experiments: see the listing below.
system: Huh6 cells; conditions: Huh6
Give just the number in µM; leave the unit off.

# count of solved cases: 2
                       compound  reported_value
0  Cn1c(N)nc2ncc(-c3ccccc3)cc21            50.0
1       Cn1c(N)nc2c3cccnc3ccc21            50.0

Here's the next entry for you.
Item under review: `CN(C)N=O` . Reported Lowest effective concentration (LOEC) in micronucleus experiments?
100000

###

tested on: Huh6 cells; settings: 24 hr treatment
QUANTITY: MN frequencies with 10% serum compared with 4% serum (in words)

>>> df
                       compound    reported_value
0       Cn1c(N)nc2c3cccnc3ccc21  stronger effects
1  Cn1c(N)nc2ncc(-c3ccccc3)cc21  stronger effects
